Target: Epidermal growth factor receptor (Homo sapiens)
readout.type: Ki

>>> readout_value("C=CC(=O)NCCSc1nc(-c2ccc(F)cc2)c(-c2ccnc(Nc3ccccc3)c2)[nH]1")
"1.6 nM"

Continue with the next compound.
Exercise: # lookup: Ki of C=CC(=O)Nc1ccc(OC)c(Nc2cc(-c3[nH]c(CCCO)nc3-c3ccc(F)cc3)ccn2)c1
Solution: 0.07 nM

----------
Below are IC50 values measured for Epidermal growth factor receptor (Homo sapiens, UniProt P00533).
Quick note: give the figure in nM, leave out the unit.

>>> readout_value("CC(=O)CCCSc1nc(-c2ccc(F)cc2)c(-c2ccnc(Nc3ccccc3)c2)[nH]1")
185
>>> readout_value("C=CC(=O)NCc1cn(Cc2cccc(Nc3cc(-c4[nH]c(SC)nc4-c4ccc(F)cc4)ccn3)c2)nn1")
164

Now take the following molecule into account.
Exercise: State the recorded IC50 for this entry: CSc1nc(-c2ccc(F)cc2)c(-c2ccnc(Nc3ccccc3)c2)[nH]1
Solution: 24

----------
The compounds listed here are annotated with their IC50.
Target: Epidermal growth factor receptor (Homo sapiens)
Lab book: enter the figure in nM, no units written.

Answered cases to consult:
>>> readout_value("C=CC(=O)Nc1ccc(OC)c(Nc2cc(-c3[nH]c(SC)nc3C(C)(C)C)ccn2)c1")
57
>>> readout_value("C=CC(=O)NCCCSc1nc(-c2ccc(F)cc2)c(-c2ccnc(Nc3ccccc3)c2)[nH]1")
16

API: the following record is the query input.
Exercise: Return IC50 measured with Epidermal growth factor receptor (Homo sapiens) given this compound: C=CC(=O)Nc1ccc(OC)c(Nc2cc(-c3[nH]c(SC)nc3C)ccn2)c1
Solution: 32

----------
Target: Epidermal growth factor receptor (Homo sapiens, UniProt P00533, L858R/T790M)
Sequence (P00533 25-1210 T790M/L858R limits assumed): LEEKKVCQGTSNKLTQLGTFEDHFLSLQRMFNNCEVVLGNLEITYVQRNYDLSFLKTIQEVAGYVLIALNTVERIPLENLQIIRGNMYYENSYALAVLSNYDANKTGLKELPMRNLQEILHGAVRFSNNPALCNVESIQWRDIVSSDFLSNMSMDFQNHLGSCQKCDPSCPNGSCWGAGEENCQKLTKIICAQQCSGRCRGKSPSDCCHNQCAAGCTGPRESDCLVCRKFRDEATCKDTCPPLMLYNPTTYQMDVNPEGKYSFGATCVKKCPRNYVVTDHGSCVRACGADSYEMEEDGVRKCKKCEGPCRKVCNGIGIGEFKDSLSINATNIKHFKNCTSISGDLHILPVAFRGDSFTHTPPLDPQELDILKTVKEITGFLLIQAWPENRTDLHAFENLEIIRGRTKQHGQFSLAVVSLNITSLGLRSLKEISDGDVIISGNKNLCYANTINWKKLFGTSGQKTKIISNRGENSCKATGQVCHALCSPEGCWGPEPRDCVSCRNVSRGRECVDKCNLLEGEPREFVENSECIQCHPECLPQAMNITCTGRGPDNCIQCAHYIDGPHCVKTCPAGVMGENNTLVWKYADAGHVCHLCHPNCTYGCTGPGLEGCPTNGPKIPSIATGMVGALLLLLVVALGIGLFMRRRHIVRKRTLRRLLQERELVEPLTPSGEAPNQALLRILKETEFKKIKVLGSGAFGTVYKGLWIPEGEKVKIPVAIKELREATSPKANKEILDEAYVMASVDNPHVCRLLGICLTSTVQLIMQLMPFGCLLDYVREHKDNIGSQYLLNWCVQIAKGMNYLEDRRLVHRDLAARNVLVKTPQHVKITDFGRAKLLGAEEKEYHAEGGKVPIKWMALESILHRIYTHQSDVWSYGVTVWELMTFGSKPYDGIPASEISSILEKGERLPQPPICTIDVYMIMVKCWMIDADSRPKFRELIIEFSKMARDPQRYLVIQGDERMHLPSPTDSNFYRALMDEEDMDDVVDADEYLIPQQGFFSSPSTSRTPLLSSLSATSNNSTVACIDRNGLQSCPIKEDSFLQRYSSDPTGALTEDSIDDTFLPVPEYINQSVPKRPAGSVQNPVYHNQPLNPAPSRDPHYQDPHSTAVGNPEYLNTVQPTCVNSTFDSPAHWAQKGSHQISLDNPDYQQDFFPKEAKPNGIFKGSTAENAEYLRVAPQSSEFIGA
Label 1 (yes) when IC50 is strictly below 40 nM; otherwise label 0 (no).

Previously resolved entries follow.
>>> assigned_class("C=CC(=O)Nc1cccc(Nc2cc(-c3[nH]c(SCCNC(=O)CC)nc3-c3ccccc3)ccn2)c1")
"1 (yes)"
>>> assigned_class("CSc1nc(-c2ccc(F)cc2)c(-c2ccnc(Nc3ccccc3)c2)[nH]1")
"0 (no)"
>>> assigned_class("C=CC(=O)Nc1ccc(OC)c(Nc2cc(-c3[nH]c(CCCO)nc3-c3ccc(F)cc3)ccn2)c1")
"1 (yes)"
>>> assigned_class("C=CC(=O)NCCSc1nc(-c2ccc(F)cc2)c(-c2ccnc(Nc3ccccc3)c2)[nH]1")
"1 (yes)"
>>> assigned_class("CCC(=O)NCCSc1nc(-c2ccc(F)cc2)c(-c2ccnc(Nc3ccccc3)c2)[nH]1")
"0 (no)"

Exercise: API: query returns whether the compound falls strictly under 40 nM in IC50. Query: C=CC(=O)Nc1ccc(OC)c(Nc2cc(-c3cnc(SC)[nH]3)ccn2)c1
Solution: 1 (yes)

Exercise: Then what about the compound C=CC(=O)Nc1ccc(OC)c(Nc2cc(-c3[nH]c(SC)nc3C3CCC3)ccn2)c1 ?
Solution: 1 (yes)

Exercise: Follow-up entry: C=CC(=O)Nc1ccc(OC)c(Nc2cc(-c3[nH]c(SC)nc3C)ccn2)c1
Solution: 1 (yes)

Exercise: Another compound to look at: C=CC(=O)NCc1cn(Cc2cccc(Nc3cc(-c4[nH]c(SC)nc4-c4ccc(F)cc4)ccn3)c2)nn1
Solution: 0 (no)

Exercise: Likewise for C=CC(=O)NCc1cccc(Nc2cc(-c3[nH]c(SC)nc3-c3ccc(F)cc3)ccn2)c1 ?
Solution: 0 (no)

Exercise: C=CC(=O)Nc1cccc(Nc2cc(-c3[nH]c(SC)nc3-c3ccc(F)cc3)ccn2)c1 ?
Solution: 1 (yes)

Exercise: Repeat for the following compound: CSc1nc(-c2ccc(F)cc2)c(-c2ccnc(Nc3cc(N4CCN(C)CC4)cc([N+](=O)[O-])c3)c2)[nH]1
Solution: 1 (yes)

Exercise: What would you report for CCC(=O)Nc1ccc(OC)c(Nc2cc(-c3cnc(SC)[nH]3)ccn2)c1 ?
Solution: 0 (no)

Exercise: Consider next the compound NCCSc1nc(-c2ccc(F)cc2)c(-c2ccnc(Nc3ccccc3)c2)[nH]1 in the same way.
Solution: 1 (yes)

Exercise: Queued: CCC(=O)Nc1ccc(OC)c(Nc2cc(-c3[nH]c(SC)nc3-c3ccc(F)cc3)ccn2)c1
Solution: 1 (yes)

Exercise: Next compound up: C=CC(=O)NCCCSc1nc(-c2ccc(F)cc2)c(-c2ccnc(Nc3ccccc3)c2)[nH]1
Solution: 0 (no)

Exercise: Thanks! And CC(=O)CCCSc1nc(-c2ccc(F)cc2)c(-c2ccnc(Nc3ccccc3)c2)[nH]1 ?
Solution: 0 (no)
